- target-desc: hM3 mAChR (Homo sapiens)
- Construct: expressed in transfected cells; host or cells: CHO-K1 (membrane preparation)
- Sequence (P20309 whole entry): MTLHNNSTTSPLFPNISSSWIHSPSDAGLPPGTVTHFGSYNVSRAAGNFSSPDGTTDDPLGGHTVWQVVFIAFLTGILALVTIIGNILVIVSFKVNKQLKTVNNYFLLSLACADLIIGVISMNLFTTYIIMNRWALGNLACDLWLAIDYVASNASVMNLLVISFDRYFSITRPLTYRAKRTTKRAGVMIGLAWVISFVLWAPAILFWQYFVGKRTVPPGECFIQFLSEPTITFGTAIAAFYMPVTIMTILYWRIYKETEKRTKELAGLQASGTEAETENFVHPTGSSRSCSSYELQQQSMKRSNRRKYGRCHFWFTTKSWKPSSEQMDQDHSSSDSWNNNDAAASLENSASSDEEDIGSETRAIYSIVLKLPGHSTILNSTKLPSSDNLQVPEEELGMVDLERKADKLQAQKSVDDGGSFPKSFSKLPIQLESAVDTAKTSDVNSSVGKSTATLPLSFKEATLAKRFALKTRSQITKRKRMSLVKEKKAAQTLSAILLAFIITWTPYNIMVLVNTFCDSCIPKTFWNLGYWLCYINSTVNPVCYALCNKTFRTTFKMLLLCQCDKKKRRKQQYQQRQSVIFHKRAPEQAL
- experimental-details: [3H]NMS inhibition radioligand binding, hM3 in CHO-K1 cell membranes
- measurement-parameters: [3H]NMS, CHO-K1 cell membranes; mean ± S.E.M.
- Method: CHO-K1 cells stably transfected with the human muscarinic receptor subtypes (hM1–5) were grown in Dulbecco’s modified Eagle’s medium (DMEM) with nutrient mixture F12 (DMEM/F12, 50/50), containing 10% fetal bovine serum, penicillin (100 U/mL), streptomycin (100 U/mL), L-glutamine (4 mM), and geneticin (G-418, 50 μg/mL) at 37 °C in a 5% CO2 humidified incubator. […] The protein content was determined by the method of Bradford (1976) with bovine serum albumin (Sigma) as a standard and stored at −80 °C. […]
Would you please tag the item 1 when its pKi hM3 is 6 or above, and -1 when it is below?

Example cases with answers are listed next.
C[N+](C)(C)C[C@@H]1COC[C@](c2ccccc2)(C2CCCCC2)O1.[I-] (relative stereo)	1
C[N+](C)(C)C[C@@H]1COC[C@H](c2ccc(S(=O)(=O)c3ccccc3)cc2)O1.[I-] (relative stereo)	-1
C[N+](C)(C)C[C@@H]1CO[C@H](C(c2ccccc2)c2ccccc2)CO1.[I-] (relative stereo) [12a]	-1
CN(C)C[C@H]1COC[C@@](c2ccccc2)(C2CCCCC2)O1 [(2S,6S)-(−)-33b]	1
C[N+](C)(C)C[C@@H]1CO[C@](c2ccccc2)(C2CCCCC2)CO1.[I-] (relative stereo) [11b]	1

Consider the record given below.
Qu. Item C[N+](C)(C)C[C@@H]1COC[C@@H](c2ccc(Sc3ccccc3)cc2)O1.[I-] (relative stereo) with pKi hM3 of 6 or above?
Ans. -1

----------
A collection of compounds and their measured pKi hM4
- target-desc: hM4 mAChR (Homo sapiens)
- Construct: expressed in transfected cells; host or cells: CHO-K1 (membrane preparation)
- Sequence (P08173 1-479): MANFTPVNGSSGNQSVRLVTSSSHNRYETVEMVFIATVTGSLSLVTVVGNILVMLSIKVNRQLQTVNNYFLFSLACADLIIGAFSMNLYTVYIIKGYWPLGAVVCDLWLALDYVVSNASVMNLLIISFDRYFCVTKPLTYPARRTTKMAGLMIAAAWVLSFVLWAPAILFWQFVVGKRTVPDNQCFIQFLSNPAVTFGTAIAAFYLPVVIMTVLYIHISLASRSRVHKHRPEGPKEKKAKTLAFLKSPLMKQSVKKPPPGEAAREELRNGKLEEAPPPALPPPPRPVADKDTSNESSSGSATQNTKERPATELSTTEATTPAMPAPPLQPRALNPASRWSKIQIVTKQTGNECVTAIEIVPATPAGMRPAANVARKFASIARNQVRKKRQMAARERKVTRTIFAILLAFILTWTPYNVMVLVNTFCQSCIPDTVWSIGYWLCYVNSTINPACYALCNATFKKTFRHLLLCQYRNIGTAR
- experimental-details: [3H]NMS inhibition radioligand binding, hM4 in CHO-K1 cell membranes
- measurement-parameters: [3H]NMS, CHO-K1 cell membranes; mean ± S.E.M.
The answer should be written as a number, with no unit following it.

C[N+](C)(C)C[C@@H]1CO[C@H](c2ccccc2)[C@@H](c2ccccc2)O1.[I-] (relative stereo) [18b]	5.40
C[N+](C)(C)C[C@@H]1COC[C@@](c2ccccc2)(C2CCCCC2)O1.[I-] (relative stereo)	7.51
C[N+](C)(C)C[C@@H]1COC[C@](c2ccccc2)(C2CCCCC2)O1 [(2R,6R)-(+)-3b]	7.45

Turning to the following compound.
Qu. Lab note: need pKi hM4 with hM4 mAChR (Homo sapiens) for entry C[N+](C)(C)C[C@@H]1CO[C@H](C(c2ccccc2)c2ccccc2)CO1.[I-] (relative stereo) [12a] , please look it up.
Ans. 5.60
